Just for reference, ChEMBL document CHEMBL4513216 is where these values come from.

Form field: INHIBITION (one value per entry).
Tested on: Plasmodium berghei
Test: Screen against P. berghei liver stage (PbLuc), transformed with Luciferase, at 10uM
Type: functional, HepG2
Conditions: tested at 10 uM
Screen size: about 69,000 compounds; about 8,600 (12%) showed an effect of 50% or more. For the sample, strong results were picked, then their nearest neighbours and some compounds at random.
// return numeric value only (unit: %, not printed)

O=C(Cn1c(=O)[nH]c2cn(-c3ccccc3)c(=O)n21)Nc1ccccc1	23.2
Cc1noc(C)c1CN1CCc2ncnc(-c3ccccc3)c2CC1	53
Cn1c(C(=O)N2CCOCC2)nc2c1CCN(c1ncccn1)C2	14.2
Cn1c(=O)c2sccc2n(CC(=O)Nc2cccc(Cl)c2)c1=O	-25.5

Lab note: Cc1noc(C)c1CN1CCc2ncnc(-c3cnn(C)c3)c2CC1 gave INHIBITION of 43

Record Cc1cnc(CN2CCN(c3ccnc(-c4ccccc4)n3)CC2)cn1 . Reported INHIBITION: 47.2

Value of measured INHIBITION for the entry c1ccc(CN2CCc3ncnc(-c4ccncc4)c3CC2)nc1 : 46.2

Form field INHIBITION, entry CC(C)n1c(=O)c2sccc2n(CC(=O)Nc2cccc(Cl)c2)c1=O : 19.3

Entry Cc1cc(CC(=O)N2CCc3cc(Br)sc3C2)n[nH]1 ; INHIBITION = -37.6

In plain terms, CCOc1nnc(CN(CC)CC(=O)Nc2c(F)cccc2F)s1 has a documented INHIBITION of 69.1

* * *

Test system: Plasmodium berghei
Experiment: Screen against P. berghei liver stage (PbLuc), transformed with Luciferase, at 10uM
Type: functional, HepG2
Conditions: tested at 10 uM
Among all 69,000 compounds or so, about 8,600 (12%) showed an effect of 50% or more. This excerpt belongs to a sample that is enriched for strong results.
propertyLabel: INHIBITION (%)
All answers are understood in %, so give the number only.

COc1ccc(C(C)NCc2cnnn2C)cc1F (stereo unspecified)	36.6
Cc1ccc(CN2CC[C@H]3[C@H](CO[C@H]3CN(C)C)C2)o1	13.1
COCC1c2nnn(CC3CC3)c2CCN1C(=O)c1ccnnc1 (stereo unspecified)	-16.2
Cc1cc(C(=O)N2CCCC2)ccc1NCC(=O)N1CCCCC1C (stereo unspecified)	37.3
CCSCCN1CCCN(S(C)(=O)=O)CC1	37.7

// below: INHIBITION requested for another compound
Entry Cc1ccc(-c2ccc(C(=O)NCCS(N)(=O)=O)c(F)c2)cc1 — recorded INHIBITION = 55.4

* * *

System: Plasmodium berghei
Experiment: Screen against P. berghei liver stage (PbLuc), transformed with Luciferase, at 10uM
Format: functional, HepG2
Details: tested at 10 uM
Among all 69,000 compounds or so, about 8,600 (12%) showed an effect of 50% or more. This is one part of a sample in which strong results are shown more often than they occur.
Class definitions on INHIBITION: lower range = under 10%, middle range = from 10% up to 30%, upper range = 30% and over

Please review the entries below; each comes with its answer.
Cc1cc(CN2CCC(N(C)Cc3noc(C4CC4)n3)C2)on1 (centres undefined)	middle range
N#Cc1ccc(CN2CCCC2Cn2cccn2)cc1 (centres undefined)	lower range
Cc1nnc(CN(C)C2CCN(Cc3nnc(C4CCC4)o3)C2)n1C (centres undefined)	upper range
CCn1c(C)nnc1CN(C)C1CCN(Cc2cnc(C)cn2)C1 (centres undefined)	lower range
CC(CNS(=O)(=O)c1cccc(Cl)c1)N1CCN(C)CC1 (centres undefined)	upper range

Dear colleague, I would appreciate it if you could identify the bin for N#CC(NC(=O)CNC(=O)c1ccccc1)c1ccsc1 (centres undefined) and reply at your convenience.
middle range

Category of Cn1cccc1C(=O)N1CC2(CCN(C(=O)c3cccnc3)C2)C1 , please.
upper range

Given COCCN(Cc1ccoc1)C(=O)c1c(F)cccc1F , name the class its INHIBITION places it in.
lower range

Kindly state the category for this compound: COCCN(Cc1ccoc1)C(=O)CSc1ccc(F)cc1
upper range

// bin(item) where item = Cc1cccc(S(=O)(=O)NCC(C)N2CCN(C)CC2)c1Cl (centres undefined)
lower range

Bin? Cc1nnc(CN(C)C2CCN(CCc3cccs3)C2)n1C (centres undefined)
middle range

The entry to classify is O=C(NCc1cnc2n1CCN(Cc1ccoc1)C2)c1ccno1 ; which class holds it?
upper range

Which INHIBITION band matches CN(C)C(=O)n1c(C(=O)NC(C)(C)CO)cc2c1c1ccccc1n2C ?
lower range

* * *

Below, each entry is listed alongside its reported INHIBITION.
System: Plasmodium berghei
Test: Screen against P. berghei liver stage (PbLuc), transformed with Luciferase, at 10uM
Format: functional, HepG2
Conditions: tested at 10 uM
The campaign covered roughly 69,000 compounds. About 8,600 (12%) showed an effect of 50% or more. For the sample, strong results were picked, then their nearest neighbours and some compounds at random.

For orientation, consider the following solved cases.
c1ccc(C(Cn2cnnc2)N2CCOCC2)nc1 (stereo not drawn)	70.4%
CC(C1CC1)N(C)C(=O)CCn1cccn1 (stereo not drawn)	49%
O=c1c2cc3c(cc2nnn1Cc1ccccc1)OCCO3	15.1%

Entry under test: CC(C)(C)c1ncc(CNCC2CCCN2c2cccnn2)s1 (stereo not drawn) . Its INHIBITION was 31.3%

Just so you know, measured INHIBITION for Cc1nnc(C(C)Nc2cccc(COCC(F)(F)C(F)F)c2)o1 (stereo not drawn) came out at 57.4%

# INHIBITION (molecule: O=c1c2cc3c(cc2nnn1Cc1ccccc1Cl)OCCO3 ) is 57.3%

* * *

System: Plasmodium berghei
Assay: Screen against P. berghei liver stage (PbLuc), transformed with Luciferase, at 10uM
Type: functional, HepG2
Conditions: tested at 10 uM
The whole screen tested about 69,000 compounds, of which about 8,600 (12%) showed an effect of 50% or more. The list comes from a sample in which strong results are over-represented; it also holds close analogues and randomly drawn compounds.
propertyLabel: INHIBITION (%)
# unit: % | format: bare number

O=C(CC1CCC2(CC1)CCN(Cc1cccnc1)CC2)N1CC=CC1	-4.32
O=C(Nc1ccc(F)cc1)C1CSCN1 (stereo unspecified)	3.38
CCCNC(=O)c1cnc(N(C)C)nc1COC	-10.3
O=C(NCc1ccc(CN2CCCC2)cc1)NCc1ccon1	20.4
COCCN1CCN(CCCS(=O)(=O)N(C)C)CC1C (stereo unspecified)	66.7

// compound CS(=O)(=O)c1ccc(-c2cc(C3CC3)c(C#N)c(N)n2)cc1 , assay Plasmodium berghei, INHIBITION value: -21.2

* * *

Test system: Plasmodium berghei
Test: Screen against P. berghei liver stage (PbLuc), transformed with Luciferase, at 10uM
Type: functional, HepG2
Conditions: tested at 10 uM
Hit rate of the full screen: of about 69,000 compounds, about 8,600 (12%) showed an effect of 50% or more. What follows is part of a selection rich in strong results, with near analogues and random picks from the rest.
Here, each record is paired with measured INHIBITION data.
Express the result in % but write the number alone.

Reference set, count: 7
Cc1ccccc1OCCN(C)Cc1noc(CC(C)C)n1	33.7
NC(=O)CNC(c1ccccc1)c1ccc(OC(F)F)cc1 (stereo not drawn)	-11.9
CC(C)c1ncncc1C(=O)NCCN1CCOCC1	-1.33
NC(=O)c1nnn(-c2ccc(Cl)cc2)n1	-27.1
CC(C)Cc1nc(CN(C)CCOc2ccccc2F)no1	34.7
Cc1noc(C(C)C)c1C(=O)NS(=O)(=O)c1ccc2c(c1)OCCCO2	7.9
O=C(CC1CCCCC1)NC1CCCCNC1=O (stereo not drawn)	-65.3

Sample CCOC(=O)[C@]12CCCN(Cc3ccco3)C[C@H]1CN(S(C)(=O)=O)C2 , system: Plasmodium berghei. Its INHIBITION is 6.67

* * *

Listing of recorded INHIBITION by entry.
System: Plasmodium berghei
Test: Screen against P. berghei liver stage (PbLuc), transformed with Luciferase, at 10uM
Type: functional, HepG2
Details: tested at 10 uM
Out of some 69,000 compounds screened, about 8,600 (12%) showed an effect of 50% or more. Only a selection was taken, and strong results are over-represented in it overall.

OCCOc1ccc(NCc2cccc3cccnc23)cn1	-37.7%
Fc1cccc(CN2CCC(c3noc(-c4ccncc4)n3)CC2)c1F	28.5%
c1ccc(C(NCc2nnc(-c3ccco3)o2)C2CCC2)cc1 (centres undefined)	50.8%

Okay, now this molecule:
The molecule identified as O=C1CC(N(C(=O)c2ccc(Cl)c(Cl)c2)C2CC2)C(=O)N1 (centres undefined) registered its INHIBITION at 31.8%

* * *

Test system: Plasmodium berghei
Assay: Screen against P. berghei liver stage (PbLuc), transformed with Luciferase, at 10uM
Type: functional, HepG2
Conditions: tested at 10 uM
In all, about 69,000 compounds went through this assay and about 8,600 (12%) showed an effect of 50% or more. What follows is part of a selection rich in strong results, with near analogues and random picks from the rest.
Rule: met for INHIBITION not less than 30%, not met for anything less.

CCS(=O)(=O)CCNc1nc(C2CCCC2)nc2c1cnn2C	not met
Cn1cnc2c1CCN(CCS(=O)(=O)c1ccccc1)C2	not met
COc1c(C2CCCN2C(=O)c2cscn2)c(C)nn1C (stereo not drawn)	met
COc1ccccc1COCC(O)CN(C)Cc1cccc(Cl)c1 (stereo not drawn)	not met
O=C(c1ccc(S(=O)(=O)N2CCNCC2)cc1)N1CCCC(O)C1 (stereo not drawn)	not met
CCn1c(C2CCCNC2)nn(Cc2ccc(C(=O)NC)o2)c1=O (stereo not drawn)	met
COc1ccc2nnc(CCCC(=O)NCc3ccccc3)n2n1	met
Cn1cnc2c1CCN(CCCOc1ccc(S(C)(=O)=O)cc1)C2	met

Given CCOc1ccnc(N2CCN(C(=O)c3cn[nH]c3C)CC2)n1 , state whether its INHIBITION is at least 30%.
not met

Hi team, for CC(NC(=O)CN1CCN(c2cccc(Cl)c2)CC1)c1ccco1 (stereo not drawn) , is the recorded INHIBITION at or above 30%?
not met

Form field: INHIBITION at least 30%? Entry: CCN1CC2(CCC1=O)CCN(CCOc1ccc(F)cc1)CC2
not met

Check this molecule for INHIBITION at or above 30%: Cc1cc(C)nc(C2CCN(C(=O)CCn3nnc4ccccc43)C2)n1 (stereo not drawn)
not met

Entry COc1ccc(CN(C)CC(O)COCc2ccccc2Cl)c(OC)c1 (stereo not drawn) : is its INHIBITION no less than 30%?
met
